Reference source for all entries: patent EP3807270B1

Tested on: CYP2D6 (Homo sapiens)
Construct: tissue BD-Gentest 452117; host or cells: human liver microsomes
Sequence (P10635 whole entry): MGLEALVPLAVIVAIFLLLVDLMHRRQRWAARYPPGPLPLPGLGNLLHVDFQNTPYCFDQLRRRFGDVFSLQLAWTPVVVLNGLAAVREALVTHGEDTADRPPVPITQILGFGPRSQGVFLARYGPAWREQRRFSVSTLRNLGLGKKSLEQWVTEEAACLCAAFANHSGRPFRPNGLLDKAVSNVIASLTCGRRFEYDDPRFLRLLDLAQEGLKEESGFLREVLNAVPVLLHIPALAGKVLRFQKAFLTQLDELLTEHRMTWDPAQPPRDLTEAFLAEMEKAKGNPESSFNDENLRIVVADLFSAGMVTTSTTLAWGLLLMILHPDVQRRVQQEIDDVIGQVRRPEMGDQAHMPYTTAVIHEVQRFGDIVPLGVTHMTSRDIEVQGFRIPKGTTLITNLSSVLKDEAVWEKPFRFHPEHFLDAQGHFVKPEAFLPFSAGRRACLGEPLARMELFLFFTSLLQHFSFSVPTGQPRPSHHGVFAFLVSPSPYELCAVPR
Experimental details: CYP inhibition assay in human liver microsome
Assay type: in vitro ADME
Condition summary: human liver microsomes, probe dextromethorphan, 10µM test compound, dextromethorphan substrate, <0: not or weak inhibitor, read-out: CYP 2D6 inhibition %@10µM
Measured inhibition at 10 min, 10 µM by item
Output spec: scalar in %, unitless text.

>  <Compound>
C[C@@H]1CN(c2ccc(C#N)c3ncccc23)C[C@H](CN2CCN(c3cccc4c3CNC4)CC2)O1 [Example 2]

>  <Units symbol>
%

>  <inhibition at 10 min, 10 µM>
-5

$$$$
>  <Compound>
C[C@@H]1CN(c2ccc(C#N)c3ncccc23)C[C@H](CN2CCC(Nc3ncc4c(n3)CCNC4)C2)O1 (stereo partly shown) [Example 57]

>  <Units symbol>
%

>  <inhibition at 10 min, 10 µM>
-8

$$$$
>  <Compound>
C[C@@H]1CN(c2ccc(C#N)c3ncccc23)C[C@H](CN2CCN(c3cc4c(cn3)CCN[C@@H]4C)CC2)O1 (single isomer, unassigned) [Example 74]

>  <Units symbol>
%

>  <inhibition at 10 min, 10 µM>
6

$$$$
>  <Compound>
C[C@@H]1CN(c2ccc(C#N)c3nccnc23)C[C@H](CN2CCN(c3ccc4c(n3)CN[C@@H]4C)CC2)O1 (single isomer, unassigned) [Example 79]

>  <Units symbol>
%

>  <inhibition at 10 min, 10 µM>
5.5

$$$$
>  <Compound>
C[C@@H]1CN(c2ccc(C#N)c3ncccc23)C[C@H](CN2CCN(c3cnc4c(c3)CN[C@@H]4C)CC2)O1 (single isomer, unassigned) [Example 68]

>  <Units symbol>
%

>  <inhibition at 10 min, 10 µM>
6

$$$$
>  <Compound>
C[C@@H]1CN(c2ccc(C#N)c3ncccc23)C[C@H](CN2CC3(C2)CN(c2ccc4c(c2)CCNC4)CCO3)O1 [Example 44]

>  <Units symbol>
%

>  <inhibition at 10 min, 10 µM>
4

$$$$
>  <Compound>
C[C@@H]1CN(c2ccc(C#N)c3ncccc23)C[C@H](CN2CC3(CCN3c3ccc4c(n3)CCNC4)C2)O1 [Example 36]

>  <Units symbol>
%

>  <inhibition at 10 min, 10 µM>
13.5

$$$$
>  <Compound>
C[C@@H]1CN(c2ccc(C#N)c3ncccc23)C[C@H](CN2CCN(c3cnc4c(c3)CNC4)CC2)O1 [Example 10]

>  <Units symbol>
%

>  <inhibition at 10 min, 10 µM>
2.5

$$$$

Summary for this compound, C[C@@H]1CN(c2ccc(C#N)c3ncccc23)C[C@H](CN2CCN(c3cnc4c(n3)CCNC4)CC2)O1 [Example 17] : inhibition at 10 min, 10 µM is 4.5

GET /value?item= C[C@@H]1CN(c2ccc(C#N)c3ncccc23)C[C@H](CN2CC3(C2)CN(c2cc4c(cn2)CCNC4)CCO3)O1 [Example 48] &field=inhibition at 10 min, 10 µM returns -12
